Data provenance: patent US20240083958A1

molecular target: human β2AR (human, UniProt P07550 2-365); assay: cell-based or functional assay
Bridge positions count the residues as written; N and C are the ends. Square brackets hold non-standard residues; d marks the D form. Primed or numbered codes have the meaning given here. Azk = residue with azidated side chain, clicked to Pra; Pra′ = residue with alkynyl side chain, clicked to Azk; Lys(N3) = [N-]=[N+]=NCCCC[C@H](N)C(=O)O; Cha = N[C@@H](CC1CCCCC1)C(=O)O
MEASURED PARAMETER: Shift (averaged)

BINDER | MEASURED PARAMETER | RESULT
Ac-NARRIFNDARDIIQRMHLRQYEWL-OH [compound 83] | Shift (averaged) | 9
Ac-FN[Pra′]CRD[Azk]IQRMHLRQYELI-OH (triazole 3-7) [compound 34] | Shift (averaged) | 29
Ac-KKKRDIIQR[Lys(N3)]HLR[Pra′]YE[Cha]L-OH (triazole 10-14) [compound 65] | Shift (averaged) | 63
Ac-FNDCRDIIQRMHLRQYALL-OH [compound 77] | Shift (averaged) | 5

Query (binder): Ac-FN[Pra′]CRD[Azk]IQRMHLRQYELL-NH2 (triazole 3-7) [compound 36] ; field requested: Shift (averaged) 1

Query (binder): Ac-FNDCRDIIQRMHLRQYEYL-OH [compound 70] ; field requested: Shift (averaged) 2
